measured quantity: melting point

> print(dat)
                                   compound  measured.quantity  experimental.result
1  COC(=O)c1ccc(OCC(O)c2ccc3c(c2)C(C)(C)CCC3(C)C)cc1O (centres undefined)      melting point        133 to 134 °C
2  COC(=O)c1cccc2nc(SCCN3CCN(CC(=O)Nc4c(SC(C)C)cc(C)nc4SC(C)C)CC3)oc12      melting point          60 to 63 °C
3  OC1Sc2ccccc2-c2ccccc21 (centres undefined)      melting point          83 to 86 °C
4             Nc1ccc(Cl)cc1C(=O)NCCCn1cncn1      melting point        116 to 118 °C
